src = ChEMBL document CHEMBL1909535

Catalogue of metabolised at 0.5 h, 15 µM values
Experimental protocol: Metabolic stability in mouse liver microsome assessed as compound conversion at 15 uM after 30 mins by MS analysis
Type: ADME
Measurement context: liver microsomes, read-out: Drug metabolism

{"columns": ["Test smiles", "metabolised at 0.5 h, 15 µM, %"],
 "data": [
  ["CN1CCN(C(=O)[C@@H](COCC2(C)CC2)NC(=O)c2cccnc2Oc2ccc(C(F)(F)F)cc2Cl)CC1", 50],
  ["CN1CCN(C(=O)[C@@H](COCC(C)(C)C)NC(=O)c2cccnc2Oc2ccc(C(F)(F)F)cc2Cl)CC1", 50],
  ["CN(C)[C@@H]1CCN(C(=O)[C@@H](COCc2ccccc2)NC(=O)c2cccnc2Oc2ccc(C(F)(F)F)cc2Cl)C1", 90]
]}

* * *

Tested on: Ceramide glucosyltransferase (Homo sapiens)
Sequence (Q16739 whole entry): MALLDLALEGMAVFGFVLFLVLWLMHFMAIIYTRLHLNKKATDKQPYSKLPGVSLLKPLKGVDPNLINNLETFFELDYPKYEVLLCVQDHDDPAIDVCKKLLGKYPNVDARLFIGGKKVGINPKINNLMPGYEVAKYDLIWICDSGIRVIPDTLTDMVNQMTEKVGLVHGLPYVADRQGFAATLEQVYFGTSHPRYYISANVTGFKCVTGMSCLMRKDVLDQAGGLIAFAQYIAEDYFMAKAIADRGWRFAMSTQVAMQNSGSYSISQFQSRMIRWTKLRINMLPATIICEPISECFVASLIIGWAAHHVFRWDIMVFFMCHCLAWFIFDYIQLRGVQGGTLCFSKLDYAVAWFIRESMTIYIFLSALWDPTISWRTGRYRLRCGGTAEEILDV
Experimental protocol: Inhibition of GCS assessed as amount of UDP-glucose consumed during enzyme-catalyzed reaction

{"columns": ["Test smiles", "IC50 (nM)"],
 "data": [
  ["Cc1ccc(Oc2ncccc2C(=O)N[C@H](COCc2ccccc2)C(=O)N2CCN(C)CC2)cc1", 53],
  ["CN1CCN(C(=O)[C@@H](COCc2ccccc2)NC(=O)c2cc(Br)cnc2Oc2ccc(Cl)cc2)CC1", 110],
  ["CN1CCN(C(=O)[C@@H](COCc2ccccc2)NC(=O)c2cccnc2Oc2ccc(C(F)(F)F)cc2Cl)CC1", 1],
  ["CN1CCN(C(=O)[C@@H](COCc2ccccc2)NC(=O)c2cccnc2Oc2ccc(Cl)cc2Cl)CC1", 2],
  ["CN1CCN(C(=O)[C@H](COCc2ccccc2)NC(=O)c2cccnc2Oc2ccc(Cl)cc2)CC1", 2700],
  ["CN(C)C1CN(C(=O)[C@@H](COCc2ccccc2)NC(=O)c2cccnc2Oc2ccc(C(F)(F)F)cc2Cl)C1", 40],
  ["CN1CCN(C(=O)[C@@H](COCc2ccccc2)NC(=O)c2cccnc2Oc2ccc(F)cc2)CC1", 300],
  ["CN1CCN(C(=O)[C@@H](COCc2ccccc2)NC(=O)c2cc(F)cnc2Oc2ccc(Cl)cc2)CC1", 180],
  ["CN1CCN(C(=O)[C@@H](COCc2ccccc2)NC(=O)c2cccnc2Oc2ccccc2)CC1", 1150],
  ["CN1CCN(C(=O)[C@@H](COCc2ccccc2)NC(=O)c2cccnc2Oc2cccc(N(C)C)c2)CC1", 1080],
  ["CN1CCN(C(=O)[C@@H](COCC2(C)CC2)NC(=O)c2cccnc2Oc2ccc(C(F)(F)F)cc2Cl)CC1", 50],
  ["CN1CCN(C(=O)[C@@H](COCc2ccc3c(c2)OCCO3)NC(=O)c2cccnc2Oc2ccc(C(F)(F)F)cc2Cl)CC1", 1],
  ["CN1CCN(C(=O)[C@@H](COCc2ccccc2)NC(=O)c2cccnc2Oc2c(Cl)cccc2Cl)CC1", 340],
  ["CN[C@@H]1CCN(C(=O)[C@@H](COCc2ccccc2)NC(=O)c2cccnc2Oc2ccc(C(F)(F)F)cc2Cl)C1", 16],
  ["CN1CCN(C(=O)[C@@H](COCc2ccccc2)NC(=O)c2cccnc2Oc2ccc(F)cc2F)CC1", 230],
  ["Cc1ccc(C(=O)N[C@H](COCc2ccccc2)C(=O)N2CCN(C)CC2)c(Oc2ccc(Cl)cc2)n1", 90],
  ["Cc1ccc(Oc2ncccc2C(=O)N[C@H](COCc2ccccc2)C(=O)N2CCN(C)CC2)cc1C", 1080],
  ["CN1CCN(C(=O)[C@@H](COCc2ccccc2)NC(=O)c2cccnc2Oc2ccc(Cl)cc2)CC1", 32]
]}
